Test system: E coli wild type
test_summary: MIC by broth microdilution, wild type E coli
Assay type: cell-based
assay_conditions: BM13 (AG06) wt; Table 2A (Example 2)
outcome_measure: MIC50 E coli BM13 (AG06) wt

CC1CC(N)C2O[C@H](O[C@@H]3C(N)C[C@@H](N)C(O)[C@H]3O[C@@H]3O[C@H](CO)[C@H](O[C@H]4O[C@@H](CN)[C@@H](O)C(O)C4N)C3O)C(N)[C@@H](O)[C@@H]2O1 (stereo partly drawn) [Compound 139] = 1 to 2 µg/mL
CCCC(O)C1OC(OC2C(N)CC(N)C(O)C2OC2OC(CO)C(OC3OC(CN)C(O)C(O)C3N)C2O)C(N)C(O)C1O (stereo not drawn) [Compound 143] = 4 µg/mL
CC(O)C1OC(OC2C(N)CC(N)C(O)C2OC2OC(CO)C(OC3OC(CN)C(O)C(O)C3N)C2O)C(N)C(O)C1O (stereo not drawn) = 1 µg/mL
CC(N)C1OC(OC2C(N)CC(N)C(O)C2OC2OC(CO)C(OC3OC(CN)C(O)C(O)C3N)C2O)C(N)C(O)C1O (stereo not drawn) = 0.5 to 1 µg/mL
CC1CC(O)C2O[C@H](O[C@@H]3C(N)C[C@@H](N)C(O)[C@H]3O[C@@H]3O[C@H](CO)[C@H](O[C@H]4O[C@@H](CN)[C@@H](O)C(O)C4N)C3O)C(N)[C@@H](O)[C@@H]2O1 (stereo partly drawn) [Compound 109] = 16 to 32 µg/mL
CC1CC(N)C2O[C@H](O[C@@H]3C(N)C[C@@H](N)C(O)[C@H]3O[C@@H]3O[C@H](CO)[C@H](O[C@H]4O[C@@H](CN)[C@@H](O)C(O)C4N)C3O)C(N)[C@@H](O)[C@@H]2O1 (stereo partly drawn) [Compound 150] = 64 to 128 µg/mL

###

Test system: E coli carrying specific resistance determinants
test_summary: MIC by broth microdilution, E coli carrying specific resistance determinants
Format: cell-based
assay_conditions: clinical isolate AG163 APH(3′)-I; Table 2 (Example 4)
Each entry below lists one item and its recorded MIC AG163 E. coli APH(3′)-I value.
outcome_measure: MIC AG163 E. coli APH(3′)-I (µg/mL)

CCC[C@@H]1C(CO)O[C@H](O[C@@H]2C(N)C[C@@H](NC(=O)[C@@H](O)CCN)C(O)[C@H]2O[C@@H]2O[C@H](CO)[C@H](O[C@H]3C[C@@H](CN)[C@@H](O)C(O)C3N)C2O)[C@@H](N)C1O (some centres unmarked) = 2
NC[C@@H]1O[C@H](O[C@H]2[C@@H](O)[C@H](O[C@@H]3[C@@H](O)[C@H](N)C[C@H](N)[C@H]3O[C@H]3O[C@H](CN)[C@@H](O)C[C@H]3N)O[C@@H]2CO)[C@H](N)[C@@H](O)[C@@H]1O = 64

###

Measured MIC of individual entries
Tested on: Acinetobacter baumannii pittii AG225
test_summary: MIC by broth microdilution, Acinetobacter baumannii
Format: cell-based
assay_conditions: strain AG225 Acinetobacter baumannii pittii
outcome_measure: MIC (µg/mL)

CCNC1C(OC2C(N)CC(N)C(O)C2OC2OC(CO)C(OC3OC(CN)C(O)C(O)C3N)C2O)OC(CO)C(O)C1O (stereo not shown) = 4
CC1CC(N)C2O[C@H](O[C@@H]3C(N)C[C@@H](N)C(O)[C@H]3O[C@@H]3O[C@H](CO)[C@H](O[C@H]4O[C@@H](CN)[C@@H](O)C(O)C4N)C3O)C(N)[C@@H](O)[C@@H]2O1 (stereo partly shown) = 4
NCC1OC(OC2C(CNC=O)OC(OC3C(O)C(N)CC(N)C3OC3OC(CO)C(O)CC3N)C2O)C(N)C(O)C1O (stereo not shown) = 4
NCC1O[C@H](O[C@@H]2C(O)[C@H](O[C@@H]3C(O)[C@H](N)CC(N)[C@H]3O[C@H]3OC(CO)[C@@H](CC(O)CO)C(O)[C@@H]3N)O[C@@H]2CO)C(N)C(O)[C@@H]1O (stereo partly shown) = 8
NCC1OC(OC2C(CO)OC(OC3C(O)C(N)CC(N)C3OC3OC(CN)C(O)C(O)C3NC=O)C2O)C(N)C(O)C1O (stereo not shown) = 2
NCC1O[C@H](O[C@@H]2C(N)C[C@@H](N)C(O)[C@H]2O[C@@H]2O[C@H](CO)[C@H](F)C2O)[C@@H](N)C(O)[C@@H]1O (stereo partly shown) = 16
CCO[C@@H]1C(CN)O[C@H](O[C@@H]2C(N)C[C@@H](N)C(O)[C@H]2O[C@@H]2O[C@H](CO)[C@H](OCCN)C2O)[C@@H](N)C1O (stereo partly shown) = 8
